These measurements were taken from paper PMC10287724.

Molecular target: T1, MBP-LDB1(56–285)-SSBP2(1–94) complex, SSBP2 Y72A (human, UniProt Q86U70 56-285; P81877 1-94, Y72A)
T1 sequence 1: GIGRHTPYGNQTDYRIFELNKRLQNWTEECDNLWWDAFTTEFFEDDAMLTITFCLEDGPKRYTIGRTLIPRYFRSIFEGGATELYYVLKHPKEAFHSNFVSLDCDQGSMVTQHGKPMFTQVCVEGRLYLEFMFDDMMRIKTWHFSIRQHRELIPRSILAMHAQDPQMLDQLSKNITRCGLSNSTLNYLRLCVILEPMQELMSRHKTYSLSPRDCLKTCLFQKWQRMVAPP
T1 sequence 2: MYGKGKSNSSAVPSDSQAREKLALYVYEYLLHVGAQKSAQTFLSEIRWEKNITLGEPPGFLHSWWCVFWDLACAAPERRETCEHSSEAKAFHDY
Assay: BLI
measurement label: Kd (µM)

LTEFAPPPTPMVDHLVASNPFEDDFGA (domain or fragment) [GST-Pygo2(58–84)] = 22
